- TGT: Interstitial collagenase (Homo sapiens, UniProt P03956)
- Sequence (P03956 whole entry): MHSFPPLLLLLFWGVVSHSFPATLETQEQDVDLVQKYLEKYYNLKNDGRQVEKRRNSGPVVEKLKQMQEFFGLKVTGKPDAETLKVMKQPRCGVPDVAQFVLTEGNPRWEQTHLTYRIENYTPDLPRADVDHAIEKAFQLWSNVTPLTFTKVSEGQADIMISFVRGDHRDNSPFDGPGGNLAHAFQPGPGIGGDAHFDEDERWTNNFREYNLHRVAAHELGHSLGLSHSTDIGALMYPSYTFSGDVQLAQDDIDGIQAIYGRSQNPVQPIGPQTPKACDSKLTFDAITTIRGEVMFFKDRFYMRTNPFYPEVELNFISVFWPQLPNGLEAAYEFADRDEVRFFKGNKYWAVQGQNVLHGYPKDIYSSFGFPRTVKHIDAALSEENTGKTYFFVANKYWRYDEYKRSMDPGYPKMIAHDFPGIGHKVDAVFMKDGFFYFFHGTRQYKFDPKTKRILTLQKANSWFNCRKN
- PROTOCOL SUMMARY: In vitro inhibitory activity against matrix metalloprotease 1 isolated from the culture medium of human skin fibroblasts induced with PMA
pIC50: −log10 of the molar value.
# if value of pIC50 reaches 8, tag yes; if it stays below, tag no

MOLECULE | CLASS ASSIGNMENT
CC(C)CC(C(=O)N[C@H](C(=O)c1c[nH]c2ccccc12)C(C)(C)C)C(O)C(=O)NO (single isomer, unassigned) | yes
CC(C)C[C@H]1C(=O)N[C@H](C(=O)c2ccc[nH]2)Cc2ccc(cc2)OCCCC[C@@H]1C(=O)NO | yes
CC(C)C[C@H]1C(=O)N[C@H](C(=O)c2ccc(C(C)(C)C)cc2)Cc2ccc(cc2)OCCCC[C@@H]1C(=O)NO | no
CC(C)C[C@H]1C(=O)N[C@H](C(=O)c2c[nH]c3ccccc23)Cc2ccc(cc2)OCCCCC[C@@H]1C(=O)NO | yes
CC(C)C[C@H](CC(=O)NO)C(=O)N[C@@H](Cc1ccccc1)C(=O)c1c[nH]c2ccccc12 | yes
C=CCC(C(=O)NO)C(CC(C)C)C(=O)N[C@@H](Cc1ccccc1)C(=O)CC (single isomer, unassigned) | no
C=CCC(C(=O)NO)C(CC(C)C)C(=O)N[C@@H](Cc1ccccc1)C(=O)c1nc2ccccc2[nH]1 (single isomer, unassigned) | no
CC(C)C[C@H]1C(=O)N[C@H](C(=O)c2ccc(S(C)(=O)=O)cc2)Cc2ccc(cc2)OCCCC[C@@H]1C(=O)NO | no
C=CCC(C(=O)NO)C(CC(C)C)C(=O)N[C@@H](Cc1ccccc1)C(=O)c1ccc[nH]1 (single isomer, unassigned) | yes
C=CCC(C(=O)NO)C(CC(C)C)C(=O)N[C@@H](Cc1ccccc1)C(=O)c1cn(C)c2ccccc12 (single isomer, unassigned) | yes
C=CCC(C(=O)NO)C(CC(C)C)C(=O)N[C@@H](Cc1ccccc1)C(=O)c1ncco1 (single isomer, unassigned) | yes
C=CCC(C(=O)NO)C(CC(C)C)C(=O)N[C@H](C(=O)c1c[nH]c2ccccc12)C(C)(C)C (single isomer, unassigned) | yes
CC(C)CC(C(=O)N[C@@H](Cc1ccccc1)C(=O)c1c[nH]c2ccccc12)C(O)C(=O)NO (single isomer, unassigned) | yes
CC(C)C[C@H]1C(=O)N[C@H](C(=O)c2ccc(CO)cc2)Cc2ccc(cc2)OCCCC[C@@H]1C(=O)NO | yes

----------
Listed below: half-life values for each entry.
- PROTOCOL SUMMARY: Half life was measured in monkey at dose of 10 mg/kg by po administration
- Assay type: ADME, organism-based
- Parameters: dose 10 mg/kg, route oral
- CONDITION SET: primates, in vivo
VALUE KIND: half-life (h)

COMPOUND | VALUE KIND | UNIT ABBREVIATION | RECORDED VALUE
C=CCC(C(=O)NO)C(CC(C)C)C(=O)N[C@@H](Cc1ccccc1)C(=O)c1c[nH]c2ccccc12 (single isomer, unassigned) | half-life | h | 20
CNC(=O)[C@@H](NC(=O)C(CC(C)C)C(O)C(=O)NO)C(C)(C)C (single isomer, unassigned) | half-life | h | 27
CC(C)C[C@H]1C(=O)N[C@H](C(=O)c2ccccc2)Cc2ccc(cc2)OCCCC[C@@H]1C(=O)NO | half-life | h | 15
CC(C)CC(C(=O)N[C@H](C(=O)c1c[nH]c2ccccc12)C(C)(C)C)C(O)C(=O)NO (single isomer, unassigned) | half-life | h | 12

----------
- TGT: 72 kDa type IV collagenase (Homo sapiens, UniProt P08253)
- Sequence (P08253 whole entry): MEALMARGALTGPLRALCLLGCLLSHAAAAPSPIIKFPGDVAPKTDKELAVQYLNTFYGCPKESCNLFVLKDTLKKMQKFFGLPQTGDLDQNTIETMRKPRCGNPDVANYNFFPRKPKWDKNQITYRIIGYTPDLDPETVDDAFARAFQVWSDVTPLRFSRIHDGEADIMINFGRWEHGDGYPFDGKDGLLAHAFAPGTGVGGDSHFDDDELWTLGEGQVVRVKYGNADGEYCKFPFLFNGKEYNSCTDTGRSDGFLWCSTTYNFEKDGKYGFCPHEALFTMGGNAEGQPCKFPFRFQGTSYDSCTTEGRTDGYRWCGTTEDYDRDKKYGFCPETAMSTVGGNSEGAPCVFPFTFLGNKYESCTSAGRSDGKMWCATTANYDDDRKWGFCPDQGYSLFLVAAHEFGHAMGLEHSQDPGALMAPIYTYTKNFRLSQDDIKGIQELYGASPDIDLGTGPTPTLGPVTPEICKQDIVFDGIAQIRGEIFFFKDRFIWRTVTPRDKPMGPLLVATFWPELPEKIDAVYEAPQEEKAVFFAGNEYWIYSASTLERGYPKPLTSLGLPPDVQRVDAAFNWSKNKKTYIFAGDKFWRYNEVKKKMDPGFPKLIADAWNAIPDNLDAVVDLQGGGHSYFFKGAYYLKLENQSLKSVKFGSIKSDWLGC
- PROTOCOL SUMMARY: In vitro inhibitory activity against matrix metalloprotease 2 isolated from human HT1080 fibrosarcoma cells induced with TNF
pIC50: −log10 of the molar value.
Given measured pIC50, output true if it is greater than or equal to 8 and false if not.

COMPOUND | CLASS ASSIGNMENT
C=CCC(C(=O)NO)C(CC(C)C)C(=O)N[C@@H](Cc1ccccc1)C(=O)c1ccccc1 (single isomer, unassigned) | true
C=CCC(C(=O)NO)C(CC(C)C)C(=O)N[C@@H](Cc1ccccc1)C(=O)c1cn(C)c2ccccc12 (single isomer, unassigned) | false
CNC(=O)[C@@H]1Cc2ccc(cc2)OCCCC[C@H](C(=O)NO)[C@@H](CC(C)C)C(=O)N1 | true
CC(C)C[C@H]1C(=O)N[C@H](C(=O)c2ccc(CO)cc2)Cc2ccc(cc2)OCCCC[C@@H]1C(=O)NO | true
C=CCC(C(=O)NO)C(CC(C)C)C(=O)N[C@@H](Cc1ccccc1)C(=O)CC (single isomer, unassigned) | false
C=CCC(C(=O)NO)C(CC(C)C)C(=O)N[C@@H](Cc1ccccc1)C(C)=O (single isomer, unassigned) | false
CC(C)C[C@H]1C(=O)N[C@H](C(=O)c2ccccc2)Cc2ccc(cc2)OCCCCC[C@@H]1C(=O)NO | true
CC(C)CC(C(=O)N[C@@H](Cc1ccccc1)C(=O)c1c[nH]c2ccccc12)C(O)C(=O)NO (single isomer, unassigned) | true
C=CCC(C(=O)NO)C(CC(C)C)C(=O)N[C@H](C(=O)c1c[nH]c2ccccc12)C(C)(C)C (single isomer, unassigned) | true
CC(C)C[C@H]1C(=O)N[C@H](C(=O)c2ccc(C(C)(C)C)cc2)Cc2ccc(cc2)OCCCC[C@@H]1C(=O)NO | false
C=CCC(C(=O)NO)C(CC(C)C)C(=O)N[C@@H](Cc1ccccc1)C(=O)c1nc2ccccc2[nH]1 (single isomer, unassigned) | false
C=CCC(C(=O)NO)C(CC(C)C)C(=O)N[C@@H](Cc1ccccc1)C(=O)c1ccc[nH]1 (single isomer, unassigned) | true
CC(C)C[C@H](CC(=O)NO)C(=O)N[C@@H](Cc1ccccc1)C(=O)c1c[nH]c2ccccc12 | true
C=CCC(C(=O)NO)C(CC(C)C)C(=O)N[C@@H](Cc1ccccc1)C(=O)c1cc[nH]c1 (single isomer, unassigned) | true
CC(C)CC(C(=O)N[C@H](C(=O)c1c[nH]c2ccccc12)C(C)(C)C)C(O)C(=O)NO (single isomer, unassigned) | true

----------
Below, each entry is listed with its recorded IC50.
- TGT: Stromelysin-1 (Homo sapiens, UniProt P08254)
- Sequence (P08254 whole entry): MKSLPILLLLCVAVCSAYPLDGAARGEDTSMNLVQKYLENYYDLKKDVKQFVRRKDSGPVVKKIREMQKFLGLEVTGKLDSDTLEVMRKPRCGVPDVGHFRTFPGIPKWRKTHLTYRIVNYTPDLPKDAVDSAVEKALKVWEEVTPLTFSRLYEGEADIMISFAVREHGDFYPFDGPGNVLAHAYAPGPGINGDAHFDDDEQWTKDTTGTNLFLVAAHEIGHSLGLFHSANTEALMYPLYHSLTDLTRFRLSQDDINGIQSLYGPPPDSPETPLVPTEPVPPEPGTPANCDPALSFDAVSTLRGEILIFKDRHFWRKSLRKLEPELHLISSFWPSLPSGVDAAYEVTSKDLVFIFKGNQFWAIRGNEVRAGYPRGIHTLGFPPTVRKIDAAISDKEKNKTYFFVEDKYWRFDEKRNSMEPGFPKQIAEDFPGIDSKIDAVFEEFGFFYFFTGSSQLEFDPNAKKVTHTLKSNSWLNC
- PROTOCOL SUMMARY: In vitro inhibitory activity against human recombinant matrix metalloprotease 3

COMPOUND | IC50
C=CCC(C(=O)NO)C(CC(C)C)C(=O)N[C@@H](Cc1ccccc1)C(=O)c1cn(C)c2ccccc12 (single isomer, unassigned) | 36 nM
C=CCC(C(=O)NO)C(CC(C)C)C(=O)N[C@@H](Cc1ccccc1)C(=O)CC (single isomer, unassigned) | 82 nM
CC(C)C[C@H]1C(=O)N[C@H](C(=O)c2ccc(S(C)(=O)=O)cc2)Cc2ccc(cc2)OCCCC[C@@H]1C(=O)NO | 9.8 nM
C=CCC(C(=O)NO)C(CC(C)C)C(=O)N[C@@H](Cc1ccccc1)C(=O)c1cc[nH]c1 (single isomer, unassigned) | 6.6 nM

----------
- PROTOCOL SUMMARY: Bioavailability in rat after po administration of 30 mg/kg dose
- Type: ADME, organism-based
- CONDITION SET: in vivo
# bioavailability listing for each entry below

COMPOUND | bioavailability [%]
C=CCC(C(=O)NO)C(CC(C)C)C(=O)N[C@@H](Cc1ccccc1)C(=O)NC (single isomer, unassigned) | 0
C=CCC(C(=O)NO)C(CC(C)C)C(=O)N[C@@H](Cc1ccccc1)C(=O)c1c[nH]c2ccccc12 (single isomer, unassigned) | 7

----------
# maps each entry to its pIC50
- TGT: Matrilysin (Homo sapiens)
- Sequence (P09237 whole entry): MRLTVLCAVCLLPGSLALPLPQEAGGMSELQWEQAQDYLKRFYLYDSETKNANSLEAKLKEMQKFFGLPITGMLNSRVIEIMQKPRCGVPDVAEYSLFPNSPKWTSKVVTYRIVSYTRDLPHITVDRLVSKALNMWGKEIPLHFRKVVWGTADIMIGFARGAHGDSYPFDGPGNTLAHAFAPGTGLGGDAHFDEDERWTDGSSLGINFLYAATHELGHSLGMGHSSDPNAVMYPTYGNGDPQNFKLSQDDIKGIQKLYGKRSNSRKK
- PROTOCOL SUMMARY: In vitro inhibitory activity against human recombinant matrix metalloprotease 7
pIC50: −log10 of the molar value.

COMPOUND | pIC50
CC(C)C[C@H]1C(=O)N[C@H](C(=O)c2ccc(C(C)(C)C)cc2)Cc2ccc(cc2)OCCCC[C@@H]1C(=O)NO | 7.40
C=CCC(C(=O)NO)C(CC(C)C)C(=O)N[C@@H](Cc1ccccc1)C(=O)c1cn(C)c2ccccc12 (single isomer, unassigned) | 7.54
C=CCC(C(=O)NO)C(CC(C)C)C(=O)N[C@@H](Cc1ccccc1)C(=O)c1ccc[nH]1 (single isomer, unassigned) | 8.92
C=CCC(C(=O)NO)C(CC(C)C)C(=O)N[C@@H](Cc1ccccc1)C(=O)c1ccccc1 (single isomer, unassigned) | 8.44
CC(C)CC(C(=O)N[C@@H](Cc1ccccc1)C(=O)c1c[nH]c2ccccc12)C(O)C(=O)NO (single isomer, unassigned) | 8.96
C=CCC(C(=O)NO)C(CC(C)C)C(=O)N[C@@H](Cc1ccccc1)C(=O)NC (single isomer, unassigned) | 7.96
CC(C)C[C@H]1C(=O)N[C@H](C(=O)c2c[nH]c3ccccc23)Cc2ccc(cc2)OCCCCC[C@@H]1C(=O)NO | 8.51
C=CCC(C(=O)NO)C(CC(C)C)C(=O)N[C@@H](Cc1ccccc1)C(C)=O (single isomer, unassigned) | 7.35
C=CCC(C(=O)NO)C(CC(C)C)C(=O)N[C@H](C(=O)c1c[nH]c2ccccc12)C(C)(C)C (single isomer, unassigned) | 9.11
CNC(=O)[C@@H]1Cc2ccc(cc2)OCCCCC[C@H](C(=O)NO)[C@@H](CC(C)C)C(=O)N1 | 8.21
